Test system: Puccinia triticina
ASSAY TEXT: Wheat brown rust (PUCCRT) disease control on wheat seedlings
Assay type: in vivo
CONDITION INFO: low volume application, 125.1 g/H, 3 Day Curative
OBSERVED PROPERTY: PUCCRT 3DC, LV activity at 125.1 g/H (% Control rating)

Previously resolved entries follow.
| COMPOUND | REPORTED |
| --- | --- |
| COc1ccnc(C(=O)N[C@@H](C)C(=O)O[C@@H](C)[C@H](Oc2cccc(Cl)c2)C(C)C)c1OC(C)=O [Cmpd 566] | A (> 80) |
| COc1ccnc(C(=O)N[C@H](C)C(=O)O[C@H](C)[C@@H](Oc2ccccc2)c2ccccc2)c1OCOC(C)=O [Cmpd 549] | D |
| CCCO[C@@H]([C@H](C)OC(=O)[C@H](C)NC(=O)c1nccc(OC)c1OCOC(=O)COCC)[C@H](CC)Oc1ccccc1 [Cmpd 512] | A (> 80) |
| CC[C@H](Cc1ccc(OC)cc1)[C@@H](Oc1ccccc1)[C@H](C)OC(=O)[C@H](C)NC(=O)c1nccc(OC)c1OCOC(C)=O [Cmpd 470] | A (> 80) |
| CCC(CC)[C@@H](Oc1ccc(Cl)cc1Cl)[C@H](C)OC(=O)[C@@H](NC(=O)c1nccc(OC)c1OCOC(C)=O)C(C)C [Cmpd 649] | B (≤ 80) |

Task item: # query: PUCCRT 3DC, LV activity at 125.1 g/H (% Control rating) of entry COc1ccnc(C(=O)NC(C)C(=O)OC(C)COCC(C)C)c1OCOC(C)=O (centres unmarked) [Cmpd 533]
Reply: A (> 80)

The measurements presented in this section are drawn from patent US20180000085A1.
